Cited source: the kinase profiling compilation of Christmann-Franck et al. (2016)

As shown below, each of these molecules has a reported residual activity value.
target: UniProt:P24723; test: radiometric filter-binding kinase assay, Kinase HotSpot; settings: compound 0.5 µM; ATP 10 µM
Sequence (P24723 whole entry, looked up): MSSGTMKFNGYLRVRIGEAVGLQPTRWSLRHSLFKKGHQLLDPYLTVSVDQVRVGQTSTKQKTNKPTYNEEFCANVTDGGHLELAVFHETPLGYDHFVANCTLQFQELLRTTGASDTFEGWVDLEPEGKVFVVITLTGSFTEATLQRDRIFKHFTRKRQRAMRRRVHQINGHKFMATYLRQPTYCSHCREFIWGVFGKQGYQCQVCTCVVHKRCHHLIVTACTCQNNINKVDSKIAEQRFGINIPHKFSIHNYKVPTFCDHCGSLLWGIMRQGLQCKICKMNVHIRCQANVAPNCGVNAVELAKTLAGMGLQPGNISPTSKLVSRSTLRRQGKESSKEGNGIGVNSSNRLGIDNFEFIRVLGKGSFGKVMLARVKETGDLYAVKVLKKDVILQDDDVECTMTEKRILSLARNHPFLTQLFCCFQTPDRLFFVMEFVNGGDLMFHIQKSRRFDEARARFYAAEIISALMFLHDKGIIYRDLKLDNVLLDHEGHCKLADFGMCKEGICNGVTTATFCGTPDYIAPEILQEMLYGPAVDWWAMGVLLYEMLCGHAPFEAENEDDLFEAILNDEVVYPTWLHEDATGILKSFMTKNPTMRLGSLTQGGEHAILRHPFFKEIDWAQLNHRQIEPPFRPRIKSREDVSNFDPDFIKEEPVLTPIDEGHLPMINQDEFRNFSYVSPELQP
The answer is to be given in %; state only the numeric part.

Cc1ccc(S(=O)(=O)/C=C/C#N)cc1 = 106
CCN(CC)CCNC(=O)c1c(C)[nH]c(/C=C2\C(=O)Nc3ccc(Cl)cc32)c1C = 86.1
CCN(CC)C(=O)c1ccc(Nc2nc(OCC3CCCCC3)c3nc[nH]c3n2)cc1 = 86.7
Nc1ncnc2c1c(-c1ccc(Oc3ccccc3)cc1)cn2C1CCCC1 = 92.6
c1ccc(-c2n[nH]c3c2oc2ccccc23)cc1 = 80.9

Entry Oc1cccc(-c2nc(N3CCOCC3)c3oc4ncccc4c3n2)c1 has what residual activity?
89.8

###

biological target: UniProtKB P49759; test: radiometric filter-binding kinase assay, Kinase HotSpot; conditions: compound 0.5 µM; ATP 10 µM
Sequence (P49759 whole entry, looked up): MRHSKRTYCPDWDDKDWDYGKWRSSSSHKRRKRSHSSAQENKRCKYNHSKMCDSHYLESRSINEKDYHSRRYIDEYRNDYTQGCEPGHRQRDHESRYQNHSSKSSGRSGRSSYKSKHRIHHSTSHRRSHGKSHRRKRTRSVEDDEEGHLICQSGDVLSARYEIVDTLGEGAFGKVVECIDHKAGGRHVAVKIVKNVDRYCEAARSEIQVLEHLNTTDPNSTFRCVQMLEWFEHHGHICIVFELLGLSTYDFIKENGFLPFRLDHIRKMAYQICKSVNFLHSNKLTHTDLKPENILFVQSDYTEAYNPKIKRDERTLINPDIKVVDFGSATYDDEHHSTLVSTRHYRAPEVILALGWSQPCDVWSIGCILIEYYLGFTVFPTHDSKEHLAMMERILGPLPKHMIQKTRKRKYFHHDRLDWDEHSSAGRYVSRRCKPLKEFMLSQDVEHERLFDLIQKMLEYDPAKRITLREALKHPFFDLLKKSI
As shown below, each of these molecules has a reported residual activity value.
The answer is to be given in %; state only the numeric part.

c1ccc(-c2n[nH]cc2-c2ccnc3ccccc23)nc1 = 106
Oc1cccc(-c2nc(N3CCOCC3)c3oc4ncccc4c3n2)c1 = 85.2
O=C1NC(=O)/C(=C/c2ccc3c(c2)OC(F)(F)O3)S1 = 102
CCCC(=O)Oc1ccc2[nH]c(C(=O)c3cc4ccccc4[nH]3)cc2c1 = 99.3
CC[n+]1c(/C=C/N(C)c2ccccc2)n(-c2ccccc2)c2ccc(-c3nc4ccccc4s3)cc21 = 108
c1ccc(-c2n[nH]c3c2oc2ccccc23)cc1 = 84
O=C(Nc1cccc(Nc2nccc(Nc3cccc(C(F)(F)F)c3)n2)c1)C1CC1 = 102
Nc1cccc(-c2cc3c(Oc4cccc(O)c4)ncnc3[nH]2)c1 = 93
O=C1NC(=O)C(c2cn(CCCn3ccnc3)c3ccccc23)=C1Nc1ccccc1 = 43.3

Entry CCN(CC)C(=O)c1ccc(Nc2nc(OCC3CCCCC3)c3nc[nH]c3n2)cc1 has what residual activity?
74.1

###

target: UniProt:Q13237; assay: radiometric filter-binding kinase assay, Kinase HotSpot; conditions: compound 0.5 µM; ATP 10 µM
Sequence (Q13237 whole entry, looked up): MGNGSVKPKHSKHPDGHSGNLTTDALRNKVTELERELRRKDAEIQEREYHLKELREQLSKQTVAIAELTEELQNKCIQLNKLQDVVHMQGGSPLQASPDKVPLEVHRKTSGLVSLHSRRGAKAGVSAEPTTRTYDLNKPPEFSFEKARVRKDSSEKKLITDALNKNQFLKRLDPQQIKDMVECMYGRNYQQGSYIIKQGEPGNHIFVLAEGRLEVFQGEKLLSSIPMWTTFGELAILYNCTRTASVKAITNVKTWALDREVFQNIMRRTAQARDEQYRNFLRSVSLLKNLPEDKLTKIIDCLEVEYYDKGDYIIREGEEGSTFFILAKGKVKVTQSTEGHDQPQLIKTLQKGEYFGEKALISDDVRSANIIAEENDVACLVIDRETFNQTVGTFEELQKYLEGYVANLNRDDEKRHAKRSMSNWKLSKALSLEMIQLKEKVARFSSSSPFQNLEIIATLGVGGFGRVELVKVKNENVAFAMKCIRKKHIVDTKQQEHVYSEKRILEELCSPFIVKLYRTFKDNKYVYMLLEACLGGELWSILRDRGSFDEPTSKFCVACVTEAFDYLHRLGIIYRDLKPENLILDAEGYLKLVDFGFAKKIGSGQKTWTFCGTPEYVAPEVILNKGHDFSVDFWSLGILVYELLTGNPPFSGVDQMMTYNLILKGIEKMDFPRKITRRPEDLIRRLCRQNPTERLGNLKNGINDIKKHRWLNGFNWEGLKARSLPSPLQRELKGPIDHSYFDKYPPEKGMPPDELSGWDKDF
Rule: Fulfilled for residual activity not less than 90%, Not fulfilled for anything less.

Take a look at these entries with their results.
CC(=O)c1ccc(N2CCOCC2)cc1O = Fulfilled
O=C1NC(=O)C(c2cn(CCCn3ccnc3)c3ccccc23)=C1Nc1ccccc1 = Not fulfilled
CC(C)N(CCC(=O)c1ccc2ccccc2c1)Cc1ccccc1 = Fulfilled
Cc1[nH]c(/C=C2\C(=O)Nc3ccc(S(=O)(=O)N(C)c4cccc(Cl)c4)cc32)c(C)c1C(=O)N1CCN(C)CC1 = Fulfilled
CCC(=O)Nc1ccc2ncnc(Nc3cccc(Br)c3)c2c1 = Fulfilled
O=c1cc(N2CCOCC2)oc2c1ccc1ccccc12 = Fulfilled
Cc1ccc(Nc2nccc(N(C)c3ccc4c(C)n(C)nc4c3)n2)cc1S(N)(=O)=O = Fulfilled
Nc1cccc(-c2cc3c(Oc4cccc(O)c4)ncnc3[nH]2)c1 = Fulfilled

Textbook exercise: given the entry CCN(CC)CCNC(=O)c1c(C)[nH]c(/C=C2\C(=O)Nc3ccc(Cl)cc32)c1C , state whether its residual activity is greater than or equal to 90%.
Not fulfilled

Now try Cc1ccc(NC2=CC(=O)c3sc(C)nc3C2=O)cc1 .
Not fulfilled

Now try CCOC(=O)c1c(C)[nH]c(/C=C2\C(=O)Nc3ccccc32)c1C .
Not fulfilled

Now try N#CC(C#N)=C(N)/C(C#N)=C/c1ccc(O)cc1 .
Not fulfilled

###

As shown below, each of these compounds has a reported residual activity value.
molecular target: GSG2 (human); experiment: radiometric filter-binding kinase assay, Kinase HotSpot; settings: compound 0.5 µM; ATP 10 µM
The answer is to be given in %; state only the numeric part.

Entry CCN(CC)CCNC(=O)c1c(C)[nH]c(/C=C2\C(=O)Nc3ccc(F)cc32)c1C has what residual activity?
53.2

Now try N#CC(C#N)=C(N)/C(C#N)=C/c1ccc(O)cc1 .
90.1

Now try Oc1cccc(-c2nc(N3CCOCC3)c3oc4ncccc4c3n2)c1 .
90.3

Now try CC(=O)c1ccc(N2CCOCC2)cc1O .
79.6

###

biological target: UniProt Q13554; assay: radiometric filter-binding kinase assay, Kinase HotSpot; conditions: compound 0.5 µM; ATP 10 µM
Sequence (Q13554 whole entry, looked up): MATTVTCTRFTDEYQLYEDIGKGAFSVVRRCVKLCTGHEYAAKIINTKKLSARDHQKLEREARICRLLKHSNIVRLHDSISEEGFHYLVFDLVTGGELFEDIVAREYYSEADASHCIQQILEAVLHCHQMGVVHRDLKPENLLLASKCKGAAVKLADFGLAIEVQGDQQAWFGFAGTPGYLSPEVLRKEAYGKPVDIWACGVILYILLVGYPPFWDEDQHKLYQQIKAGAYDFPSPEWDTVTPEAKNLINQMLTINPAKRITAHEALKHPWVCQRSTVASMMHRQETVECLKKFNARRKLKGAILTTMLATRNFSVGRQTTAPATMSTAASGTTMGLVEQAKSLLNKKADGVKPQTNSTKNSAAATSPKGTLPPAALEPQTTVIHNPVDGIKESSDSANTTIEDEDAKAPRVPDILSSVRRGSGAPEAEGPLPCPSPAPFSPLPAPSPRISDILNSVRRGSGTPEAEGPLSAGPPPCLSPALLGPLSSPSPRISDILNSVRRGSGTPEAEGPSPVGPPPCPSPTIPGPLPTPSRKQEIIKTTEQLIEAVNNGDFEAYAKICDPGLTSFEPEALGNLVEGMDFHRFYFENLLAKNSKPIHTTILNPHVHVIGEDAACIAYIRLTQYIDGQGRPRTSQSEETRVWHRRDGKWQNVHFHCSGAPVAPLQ
value type: residual activity (%)
The answer is to be given in %; state only the numeric part.

Here's what some known entries look like.
N#C/C(=C(/N)Sc1ccc(N)cc1)c1ccccc1C(F)(F)F = 93.5
CNC(=O)c1cc(Oc2ccc(NC(=O)Nc3ccc(Cl)c(C(F)(F)F)c3)cc2)ccn1 = 96.7
O=C(Nc1cccc(Nc2nccc(Nc3cccc(C(F)(F)F)c3)n2)c1)C1CC1 = 102

Consider now this further compound.
Entry CC(=O)c1ccc(N2CCOCC2)cc1O has what residual activity?
105

###

target: CSNK1D (human); experiment: radiometric filter-binding kinase assay, Kinase HotSpot; settings: compound 0.5 µM; ATP 10 µM
As shown below, each of these compounds has a reported residual activity value.
The answer is to be given in %; state only the numeric part.

Here's what some known entries look like.
Nc1ncnc2c1c(-c1ccc(Oc3ccccc3)cc1)cn2C1CCCC1 = 85.1
c1ccc(-c2n[nH]c3c2oc2ccccc23)cc1 = 93.1

Entry CNc1cc2c(Nc3cccc(Br)c3)ncnc2cn1 has what residual activity?
98.7

Now try COc1ccc2c(c[n+](C)c3c4cc5c(cc4ccc23)OCO5)c1OC .
92.9

###

target: IGF1R (human) (UniProt P08069); assay: radiometric filter-binding kinase assay, Kinase HotSpot; details: compound 0.5 µM; ATP 10 µM
Sequence (P08069 whole entry, looked up): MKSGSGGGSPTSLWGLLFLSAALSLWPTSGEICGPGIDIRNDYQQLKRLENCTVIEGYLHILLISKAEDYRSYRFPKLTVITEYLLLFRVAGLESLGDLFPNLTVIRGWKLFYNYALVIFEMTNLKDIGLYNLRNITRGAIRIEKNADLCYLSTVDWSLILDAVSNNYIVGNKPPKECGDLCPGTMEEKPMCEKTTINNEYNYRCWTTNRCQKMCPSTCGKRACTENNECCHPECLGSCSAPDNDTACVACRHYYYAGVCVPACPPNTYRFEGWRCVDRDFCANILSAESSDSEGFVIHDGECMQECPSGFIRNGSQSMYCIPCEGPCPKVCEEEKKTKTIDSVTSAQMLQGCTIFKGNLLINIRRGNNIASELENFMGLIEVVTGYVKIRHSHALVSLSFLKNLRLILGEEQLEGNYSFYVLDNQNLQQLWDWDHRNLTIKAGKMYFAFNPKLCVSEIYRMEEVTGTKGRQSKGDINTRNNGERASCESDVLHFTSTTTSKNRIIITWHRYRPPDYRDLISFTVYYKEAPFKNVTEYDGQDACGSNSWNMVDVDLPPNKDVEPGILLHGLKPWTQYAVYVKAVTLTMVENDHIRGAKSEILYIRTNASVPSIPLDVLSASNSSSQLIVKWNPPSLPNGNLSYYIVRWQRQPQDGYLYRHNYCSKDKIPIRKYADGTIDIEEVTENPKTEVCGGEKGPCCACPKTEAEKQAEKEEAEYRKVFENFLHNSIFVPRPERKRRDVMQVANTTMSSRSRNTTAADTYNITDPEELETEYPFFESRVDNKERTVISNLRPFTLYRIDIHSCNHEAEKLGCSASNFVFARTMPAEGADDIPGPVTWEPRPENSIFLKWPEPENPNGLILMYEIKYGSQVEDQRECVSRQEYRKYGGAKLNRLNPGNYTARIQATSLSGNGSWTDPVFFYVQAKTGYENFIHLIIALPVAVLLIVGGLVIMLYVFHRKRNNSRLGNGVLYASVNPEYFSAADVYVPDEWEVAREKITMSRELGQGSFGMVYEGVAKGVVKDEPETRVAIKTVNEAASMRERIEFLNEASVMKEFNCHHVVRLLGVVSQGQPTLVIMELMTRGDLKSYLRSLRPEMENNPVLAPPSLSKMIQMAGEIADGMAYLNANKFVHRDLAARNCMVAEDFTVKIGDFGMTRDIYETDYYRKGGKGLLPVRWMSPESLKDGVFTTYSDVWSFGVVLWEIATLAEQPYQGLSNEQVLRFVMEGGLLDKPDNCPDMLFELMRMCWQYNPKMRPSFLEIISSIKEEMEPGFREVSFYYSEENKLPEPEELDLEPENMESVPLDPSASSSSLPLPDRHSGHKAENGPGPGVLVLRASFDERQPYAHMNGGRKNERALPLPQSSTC
value type: residual activity
Write your answer as a measured quantity: the number, then the unit.

c1ccc(-c2n[nH]cc2-c2ccnc3ccccc23)nc1 = 102%
COc1ccc(COc2ccc(Cc3cnc(N)nc3N)cc2OC)cc1 = 123%
CCC(=O)Nc1ccc2ncnc(Nc3cccc(Br)c3)c2c1 = 87.6%

Entry CCN(CC)CCNC(=O)c1c(C)[nH]c(/C=C2\C(=O)Nc3ccc(Cl)cc32)c1C has what residual activity?
35.2%

Now try Cc1[nH]c(/C=C2\C(=O)Nc3ccc(S(=O)(=O)N(C)c4cccc(Cl)c4)cc32)c(C)c1C(=O)N1CCN(C)CC1 .
103%

Now try O=C(Nc1cccc(Nc2nccc(Nc3cccc(C(F)(F)F)c3)n2)c1)C1CC1 .
95.7%

###

molecular target: ULK2 (human) (UniProt Q8IYT8); assay: radiometric filter-binding kinase assay, Kinase HotSpot; settings: compound 0.5 µM; ATP 10 µM
Sequence (Q8IYT8 whole entry, looked up): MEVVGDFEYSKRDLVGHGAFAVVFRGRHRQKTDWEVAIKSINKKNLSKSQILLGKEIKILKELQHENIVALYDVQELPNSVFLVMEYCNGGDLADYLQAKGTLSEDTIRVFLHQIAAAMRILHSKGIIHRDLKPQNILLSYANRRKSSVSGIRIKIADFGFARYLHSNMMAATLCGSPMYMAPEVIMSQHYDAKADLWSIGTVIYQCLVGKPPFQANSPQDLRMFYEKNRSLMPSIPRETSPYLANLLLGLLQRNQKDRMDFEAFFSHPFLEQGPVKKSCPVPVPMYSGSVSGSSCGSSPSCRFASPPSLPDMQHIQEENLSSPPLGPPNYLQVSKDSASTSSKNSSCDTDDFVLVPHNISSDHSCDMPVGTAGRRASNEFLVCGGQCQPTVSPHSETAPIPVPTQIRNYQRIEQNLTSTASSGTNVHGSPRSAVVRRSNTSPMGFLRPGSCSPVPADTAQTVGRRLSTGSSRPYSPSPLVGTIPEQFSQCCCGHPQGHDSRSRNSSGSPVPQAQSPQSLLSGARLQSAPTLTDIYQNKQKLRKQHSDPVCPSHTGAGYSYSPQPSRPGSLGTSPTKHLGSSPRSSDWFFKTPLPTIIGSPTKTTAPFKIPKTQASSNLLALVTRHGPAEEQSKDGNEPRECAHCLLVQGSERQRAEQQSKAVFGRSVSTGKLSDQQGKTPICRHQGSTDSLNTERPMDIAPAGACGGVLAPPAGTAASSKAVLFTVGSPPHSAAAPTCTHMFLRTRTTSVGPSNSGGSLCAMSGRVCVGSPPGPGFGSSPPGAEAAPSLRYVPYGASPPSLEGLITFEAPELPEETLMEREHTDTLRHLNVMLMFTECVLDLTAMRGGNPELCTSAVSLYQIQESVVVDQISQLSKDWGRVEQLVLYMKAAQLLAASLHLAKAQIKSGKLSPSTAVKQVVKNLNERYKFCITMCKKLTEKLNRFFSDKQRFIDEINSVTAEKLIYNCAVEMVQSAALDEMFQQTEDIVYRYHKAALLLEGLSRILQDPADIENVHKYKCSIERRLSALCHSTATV
value type: residual activity
Write your answer as a measured quantity: the number, then the unit.

Here's what some known entries look like.
Cc1ccc(NC2=CC(=O)c3sc(C)nc3C2=O)cc1 = 96.9%
CCC(=O)Nc1ccc2ncnc(Nc3cccc(Br)c3)c2c1 = 118%

Entry COc1ccc(COc2ccc(Cc3cnc(N)nc3N)cc2OC)cc1 has what residual activity?
105%

Now try O=C1NC(=O)C(c2cn(CCCn3ccnc3)c3ccccc23)=C1Nc1ccccc1 .
91.7%

Now try CNC(=O)c1cc(Oc2ccc(NC(=O)Nc3ccc(Cl)c(C(F)(F)F)c3)cc2)ccn1 .
106%

Now try O=C(Nc1cccc(Nc2nccc(Nc3cccc(C(F)(F)F)c3)n2)c1)C1CC1 .
107%

Now try O=C1NC(=O)/C(=C/c2ccc3c(c2)OC(F)(F)O3)S1 .
100%

Now try CC(C)N(CCC(=O)c1ccc2ccccc2c1)Cc1ccccc1 .
113%

Now try N#C/C(=C(/N)Sc1ccc(N)cc1)c1ccccc1C(F)(F)F .
115%

Now try Nc1ccc2ncnc(NCCc3ccc(Oc4ccccc4)cc3)c2c1 .
103%

Now try Nc1ncnc2[nH]nc(Nc3ccc(F)cc3)c12 .
110%

Now try Cc1[nH]c(/C=C2\C(=O)Nc3ccc(S(=O)(=O)N(C)c4cccc(Cl)c4)cc32)c(C)c1C(=O)N1CCN(C)CC1 .
16.8%

Now try O=S(=O)(c1cccc2cnccc12)N1CCCNCC1 .
101%

Now try N#CC(C#N)=C(N)/C(C#N)=C/c1ccc(O)cc1 .
105%

###

biological target: ULK2 (human) (UniProt Q8IYT8); experiment: radiometric filter-binding kinase assay, Kinase HotSpot; conditions: compound 0.5 µM; ATP 10 µM
value type: residual activity (%)
The answer is to be given in %; state only the numeric part.

Here's what some known entries look like.
Nc1ncnc2c1c(-c1ccc(Oc3ccccc3)cc1)cn2C1CCCC1 = 125
CC#CC(=O)Nc1cc2c(Nc3ccc(F)c(Cl)c3)ncnc2cn1 = 96.7
CCOC(=O)c1c(C)[nH]c(/C=C2\C(=O)Nc3ccccc32)c1C = 105
Cc1ccc(S(=O)(=O)/C=C/C#N)cc1 = 110

Notebook entry, ULK2 (human) (UniProt Q8IYT8) assay: residual activity of CCN(CC)CCNC(=O)c1c(C)[nH]c(/C=C2\C(=O)Nc3ccc(Cl)cc32)c1C = ?
43

Now try CCN(CC)C(=O)c1ccc(Nc2nc(OCC3CCCCC3)c3nc[nH]c3n2)cc1 .
84.9

Now try CNc1cc2c(Nc3cccc(Br)c3)ncnc2cn1 .
119

Now try Nc1cccc(-c2cc3c(Oc4cccc(O)c4)ncnc3[nH]2)c1 .
97.5

Now try c1ccc(-c2n[nH]cc2-c2ccnc3ccccc23)nc1 .
95.6

Now try CCCC(=O)Oc1ccc2[nH]c(C(=O)c3cc4ccccc4[nH]3)cc2c1 .
98.3

Now try COc1cc2ncnc(Nc3cccc(Cl)c3)c2cc1OC .
103
